# measurement protocol: BSK_MyoF_SRB: Viability Assessment in the BioMAP Diversity Plus: MyoF Assay (AID 2284267);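 further: total protein by SRB absorbance in parallel cultures as cytotoxicity measure; cells assessed 24 h after compound addition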
# particulars: primary human lung fibroblasts
Calls of active or inactive are those of the source. How the source made its calls: active means hit-call score of the fitted dose curve at least 0.9, where 1 is the maximum; inactive means score below 0.9.
Give your call using only these classes: active, inactive

For C=C(C)C(=O)OCCC(F)(F)C(F)(F)C(F)(F)C(F)(F)C(F)(F)C(F)(F)C(F)(F)C(F)(F)F , which call appears in the assay record?
inactive

Kindly provide the recorded test outcome for the following molecule: O=S1(=O)CC(Cl)(Cl)C(Cl)(Cl)C1
active

Fill in: this test's call for CCCCCCCC1CCCC1=O (stereo unspecified) is ___
active

Hello, I am checking results. What call was entered for CC1=CC(C)C(C=O)C(C)C1 (stereo unspecified) (tested in a mixture with another compound) ?
inactive

Write down the call the test reported for this molecule. Item: c1ccc2c(c1)-c1ccc3ccc4cccc5cc-2c1c3c45
inactive

What classification did OCCN1CCOCC1 end up with in this test?
inactive

Kindly provide the recorded test outcome for the following molecule: O=C(O)C(F)(F)OC(F)(F)C(F)(F)OC(F)(F)C(F)(F)C(F)(F)C(F)(F)F
inactive

Just curious, what result did O=S(=O)(O)C(F)(F)C(F)(F)OC(F)(F)C(F)(F)F get here?
inactive

// outcome(item) with item = COc1ccccc1NC(=O)CC(C)=O
inactive

Which outcome was assigned to CCOC(=O)CCCCCCCCC(=O)OCC in this test?
inactive

For this molecule, state the assay outcome: O=C(O)C(F)(F)C(F)(F)C(F)(F)C(F)(F)C(F)(F)C(F)(F)C(F)(F)C(F)F
inactive

----------
# measurement protocol: CCTE_Shafer_MEA_acute_spike_number: CCTE's Neural Acute Assay for Total Number of Spikes, Shafer Lab (AID 2284008)
Calls of active or inactive are those of the source. Rule for the calls: active = hit-call score of the fitted dose curve at least 0.9, where 1 is the maximum; inactive = score below 0.9.
Write down the outcome that applies. Available outcomes: t = active, f = inactive

Can you look up the reported call for CC(C)(CO)CO for me?
f

What did the test return for CCn1cc(C(=O)O)c(=O)c2ccc(C)nc21 ?
t

Call for entry CC(C)CCCC(C)(C)O :
f

Please state the recorded outcome for this molecule: CCCO[Si](OCCC)(OCCC)OCCC
f

Status in this test for CC(=O)c1ccc(C)cc1 ?
t

Short answer needed: outcome of this test for CCCCOCCOCCO ?
f

Lab log entry: O=C(c1ccc(OCCN2CCCCC2)cc1)c1c(-c2ccc(O)cc2)sc2cc(O)ccc12 — outcome as called in the assay?
t

Per the assay record, what outcome was assigned to c1ccc(OCCOc2ccccc2)cc1 ?
f

----------
# Read-out: Vascular cell adhesion molecule 1 (VCAM1), VCAM1 (gene 7412)
# measurement protocol: BSK_LPS_VCAM1: BioMAP Diversity Plus: LPS Assay for Vascular cell adhesion molecule 1 (VCAM1) Biomarker Activity (AID 2283086)
# particulars: primary human HUVEC with PBMC; actives raise or lower the signal
# Experimental: BSK_LPS is a cell-based, multiplexed-readout assay that uses umbilical vein endothelium and peripheral blood mononuclear cells, a human vascular primary cell co-culture, with measurements taken at 24 hours after chemical dosing in a 96-well plate.BSK_LPS_VCAM1 is an assay component measured in the BSK_LPS assay. It measures VCAM-1 antibody related to regulation of gene expression using ELISA technology.Data from the assay component BSK_LPS_VCAM1 was analyzed into 1 assay endpoint. […]
Activity calls are given as the source filed them. The calls were made as follows: active = hit-call score of the fitted dose curve at least 0.9, where 1 is the maximum; inactive = score below 0.9.
// one of 1 (active), 0 (inactive), no free text

Recorded test call requested for C=C1CC/C=C(\C)CC[C@@H]2[C@@H]1CC2(C)C
1

Test call, this compound: CC1(C)[C@H](C=C(Cl)Cl)[C@H]1C(=O)OCc1cccc(Oc2ccccc2)c1
0

Can you look up the reported call for COc1ccccc1NC(=O)CC(C)=O for me?
0

Hello, I am checking results. What call was entered for CC(=O)OC(C)(C)C1CC=C(C)CC1 (centres undefined) ?
0

Give the logged outcome of this assay for the following compound: COC(=O)c1ccc(C(=O)OC)cc1
0

// outcome(item) with item = CC=CC(=O)C1=C(C)C=CCC1(C)C
0

Entry O=S(=O)(O)C(F)(F)C(F)(F)OC(F)(F)C(F)(F)F : call = ?
0

What classification did CCCCCCCCCCCCS end up with in this test?
1

Hey, what did the test say about O=C1OC2(c3ccc(O)cc3Oc3cc(O)ccc32)c2ccccc21 ?
0

Recorded test call requested for NC(=O)c1c(Cl)cccc1Cl
0

Returns: the outcome recorded for CCCO[Si](OCCC)(OCCC)OCCC in this assay.
0

Tell me the assay call for O=S1(=O)CC(Cl)(Cl)C(Cl)(Cl)C1 please.
1

Status in this test for CCCCCCCC1CCCC1=O (centres undefined) ?
0

In this assay, the call recorded for CC(C)Cc1ccc(C(C)C(=O)O)cc1 (centres undefined) was what?
0

----------
# measurement protocol: ATG_PXRE_CIS: Attagene CIS-FACTORIAL HepG2 Assay for human Pregnane X Receptor Element (PXRE) (AID 2282957)
# particulars: HepG2 Attagene CIS-FACTORIAL PXRE reporter, mRNA; actives raise or lower the signal
Activity calls are given as the source filed them. How the source made its calls: active means hit-call score of the fitted dose curve at least 0.9, where 1 is the maximum; inactive means score below 0.9.
Parameter call: string, one of Yes (active), No (inactive)

Hi, sorry to bother you, what did the test record for O=S1(=O)CC=CC1 ?
No

State the result this test recorded for CCCCCC1CCC(=O)O1 (configuration not stated) .
No

What did the test return for CCOC(=O)CC1(C)OCC(C)O1 (configuration not stated) ?
No

// return assay outcome for CC1=CCC(C(C)(C)O)CC1 (configuration not stated)
No

For C=C(C)CCCC(C)CCO (configuration not stated) , which call appears in the assay record?
Yes

Would you mind telling me which call this test gave CC(O)CN (configuration not stated) ?
No

What did this assay record as the result for C=CC(C)CCCC(C)(C)O (configuration not stated) ?
No

Could you check what this test reported for N=C1N=C(N)c2ccccc21 ?
No

Each molecule tested received a call. Report the one for COc1ccccc1NC(=O)CC(C)=O .
Yes

Identify the outcome logged in this assay for the molecule shown: CCOCC(C)O (configuration not stated)
Yes

Each molecule tested received a call. Report the one for Cc1ccc(C(C)(C)O)cc1 .
No

Could you please tell me the result logged for C=CC(C)(CCC=C(C)C)OC(=O)CC (configuration not stated) in this assay?
Yes

Assay result, entry CCCCCCOC(C)=O — outcome?
No

What classification did CC(=O)N(C)C end up with in this test?
No

I would be grateful if you could indicate the recorded call for CC(C)CCOC(=O)CC(C)C .
No

Please indicate how the test categorized C=C(C)C(=O)OCCN(C)C .
No

Identify the outcome logged in this assay for the molecule shown: NCCN1CCNCC1
No

----------
# Read-out: Monocyte Chemoattractant Protein-1 (MCP1), CCL2 (gene 6347)
# measurement protocol: BSK_SAg_MCP1: BioMAP Diversity Plus: SAg Assay for Monocyte Chemoattractant Protein-1 (MCP1) Biomarker Activity (AID 2283090)
# particulars: primary human HUVEC with PBMC; actives raise or lower the signal
# Experimental: BSK_SAg is a cell-based, multiplexed-readout assay that uses umbilical vein endothelium and peripheral blood mononuclear cells, a human vascular primary cell co-culture, with measurements taken at 24 hours after chemical dosing in a 96-well plate.BSK_SAg_MCP1 is an assay component measured in the BSK_SAg assay. It measures MCP-1 antibody related to regulation of gene expression using ELISA technology.Data from the assay component BSK_SAg_MCP1 was analyzed into 1 assay endpoint. […]
The source made the active and inactive calls. Rule for the calls: active = hit-call score of the fitted dose curve at least 0.9, where 1 is the maximum; inactive = score below 0.9.
The categories you may choose from are class 1 (active), class 0 (inactive)

Returns: the outcome recorded for CC(C)CCCC(C)(C)O in this assay.
class 0

Entry Nc1ccc(N)c([N+](=O)[O-])c1 : call = ?
class 0

Look up the recorded call for C=C(C)C(=O)OCCC(F)(F)C(F)(F)C(F)(F)C(F)(F)C(F)(F)C(F)(F)C(F)(F)C(F)(F)F in this test.
class 0

Please indicate how the test categorized c1ccc2c(c1)-c1ccc3ccc4cccc5cc-2c1c3c45 .
class 0

# fetch the recorded call for CCn1cc(C(=O)O)c(=O)c2ccc(C)nc21 here
class 0

For this compound, state the assay outcome: CCCCCCCC1CCCC1=O (centres undefined)
class 0

Give the logged outcome of this assay for the following compound: CC(=O)OC(C)(C)C1CC=C(C)CC1 (centres undefined)
class 0

Status in this test for O=S1(=O)CC(Cl)(Cl)C(Cl)(Cl)C1 ?
class 1

Test call, this compound: CCCO[Si](OCCC)(OCCC)OCCC
class 0

Hi, sorry to bother you, what did the test record for OCCN1CCOCC1 ?
class 0

Identify the outcome logged in this assay for the compound shown: CCCCCCCCCCCCS
class 0

Short answer needed: outcome of this test for CCCCOCCOCCO ?
class 0

# outcome recorded in this test, key = CCCCCCCCCC(=O)OCC
class 0

Record lookup: outcome of this test for COc1ccccc1NC(=O)CC(C)=O ?
class 0
